Hey, just so you know, these numbers are from patent US6632844B1.

# System: heparinized whole blood
# PROTOCOL CONDITIONS: read-out: concentration that reduced glycolytic loss by half; 8 hours incubation at room temperature
pIC50: −log10 of the molar value.
Listing: pIC50 of selected molecules

Request the reported pIC50 associated with O=C[C@@H](O)CO
~3.19

Request the reported pIC50 associated with O=CC(O)CO (centres unmarked)
~3.05

----------
# System: heparinized whole blood
# PROTOCOL CONDITIONS: agent at 10 mmol/L; 0 to 8 hours; no additions 41%
MEASURED PROPERTY: Decrease (glucose loss) (%)
State the answer as a number, implicitly in %.

Use these answered entries as a reference point.
CC(=O)C=O [Methylglyoxal, reference compound]
43
O=CCO [Glycolaldehyde, reference compound]
52
O=CC(O)CO (stereo not shown)
0
O=C(O)C(O)CO (stereo not shown) [Glyceric Acid, reference compound]
42
O=C(CO)[C@@H](O)[C@H](O)[C@@H](O)CO [L-Sorbose, reference compound]
38
O=C[C@H](O)CO
17

Request the reported Decrease (glucose loss) associated with O=C[C@@H](O)CO
0

----------
# System: heparinized whole blood
# PROTOCOL CONDITIONS: agent at 10 mmol/L; mean(SD)
Listing: Glucose at 0 Hours of selected compounds

O=C(CO)[C@@H](O)[C@H](O)[C@@H](O)CO [L-Sorbose, reference compound]
5.0(0.1) mmol/L
O=CCO [Glycolaldehyde, reference compound]
4.8(0.1) mmol/L
O=C[C@@H](O)CO [1-GA, 1-glyceraldehyde]
4.8(0.1) mmol/L
CC(=O)C=O [Methylglyoxal, reference compound]
4.5(1.0) mmol/L
O=CC(O)CO (stereo not shown) [d,1-GA, d,1-glyceraldehyde]
4.7(0.2) mmol/L
O=C[C@H](O)CO [d-GA, d-glyceraldehyde]
4.7(0.1) mmol/L

Could you now look at the following compound, please?
Request the reported Glucose at 0 Hours associated with O=C(O)C(O)CO (stereo not shown) [Glyceric Acid, reference compound]
4.7(0.1) mmol/L
